# Tested on: PC3 cells
# Assay Name: XTT assay for cell viability, PC3 cells
# Type: cell-based, human
# Condition Set: Homo sapiens, PC-3, cell viability
Readout Type: IC50

[[record]]
compound_smiles = "CN(C)C(=O)c1ccc(NC(=O)Nc2ccc(-c3nc(N4CCOCC4)c4ccc(-c5cccnc5NCCO)cc4n3)cc2)cc1"
reported_measurement = "201 to 10000 nM"

[[record]]
compound_smiles = "CN(C)C(=O)c1ccc(NC(=O)Nc2ccc(-c3nc(N4CCOCC4)c4ccc(-c5cnn(C)c5)cc4n3)cc2)cc1"
reported_measurement = "< 100 nM"

[[record]]
compound_smiles = "Cc1ccc(-c2ccc3c(N4CCOCC4)nc(-c4ccc(NC(=O)Nc5ccc(C(=O)N(C)CCN(C)C)cc5)cc4)nc3c2)o1"
reported_measurement = "100 to 500 nM"


Could you now consider this next molecule?
Query: Complete the entry with IC50 for COc1ccc(-c2ccc3c(N4CCOCC4)nc(-c4ccc(NC(=O)Nc5ccc(C(=O)N(C)C)cc5)cc4)nc3c2)cn1
Reply: 100 to 500 nM

###

# Test system: PC3 cells
# Assay Name: XTT assay for cell viability, PC3 cells
# Assay type: cell-based, human
# Condition Set: Homo sapiens, PC-3, cell viability
This section presents compounds with their documented IC50 values.

Query: Complete the entry with IC50 for Cc1ccc(-c2ccc3c(N4CCOCC4)nc(-c4ccc(NC(=O)Nc5ccc(C(=O)N6CCC(O)C6)cc5)cc4)nc3c2)o1 (stereo not drawn)
Reply: < 100 nM

Query: Complete the entry with IC50 for CC(O)c1ccc(-c2ccc3c(N4CCOCC4)nc(-c4ccc(NC(=O)Nc5ccc(C(=O)N(C)C)cc5)cc4F)nc3c2)o1 (stereo not drawn)
Reply: 201 to 10000 nM

Query: Complete the entry with IC50 for CN(C)C(=O)c1ccc(NC(=O)Nc2ccc(-c3nc(N4CCOCC4)c4ccc(-c5cccnc5)cc4n3)cc2F)cc1
Reply: 201 to 10000 nM

Query: Complete the entry with IC50 for CN(C)C1CCN(C(=O)c2ccc(NC(=O)Nc3ccc(-c4nc(N5CCOCC5)c5cc(F)c(-c6cccnc6)cc5n4)cc3)cc2)C1 (stereo in doubt)
Reply: 201 to 10000 nM

Query: Complete the entry with IC50 for Cc1ccc(-c2ccc3c(N4CCOCC4)nc(-c4ccc(NC(=O)Nc5ccc(C(=O)N6CCC(N(C)C)C6)cc5)cc4)nc3c2)o1 (stereo in doubt)
Reply: < 100 nM

Query: Complete the entry with IC50 for CNC(=O)c1ccc(NC(=O)Nc2ccc(-c3nc(N4CCOCC4)c4ccc(-c5ccco5)cc4n3)cc2)cc1
Reply: < 100 nM

###

# Test Target: mTOR kinase (Homo sapiens)
Readout Type: IC50

Take a look at these entries with their results.
[[record]]
compound = "Cc1ccncc1-c1cnc2c(N3CCOCC3)nc(-c3ccc(NC(=O)Nc4ccc(C(=O)N(C)C)cc4)cc3)nc2c1"
readout_type = "IC50"
reported_measurement = "< 50 nM"

[[record]]
compound = "CN(C)C(=O)c1ccc(NC(=O)Nc2ccc(-c3nc(N4CCOCC4)c4ccc(-c5ccc(C(C)(C)O)o5)cc4n3)cc2)cc1"
readout_type = "IC50"
reported_measurement = "< 50 nM"

[[record]]
compound = "CN(C)C(=O)c1ccc(NC(=O)Nc2ccc(-c3nc(N4CCOCC4)c4ccc(-c5ccc(N)nc5)cc4n3)cc2)cc1"
readout_type = "IC50"
reported_measurement = "< 50 nM"

[[record]]
compound = "Cc1ccc(-c2ccc3c(N4CCOCC4)nc(-c4ccc(NC(=O)Nc5ccc(C(=O)N(C)C)cc5)nc4)nc3c2)o1"
readout_type = "IC50"
reported_measurement = "201 to 10000 nM"

[[record]]
compound = "CN(C)C(=O)c1ccc(NC(=O)Nc2ccc(-c3nc(N4CCOCC4)c4ccc(-c5ccco5)cc4n3)c(F)c2)cc1"
readout_type = "IC50"
reported_measurement = "50 to 200 nM"

[[record]]
compound = "CC1CN(c2nc(-c3ccc(NC(=O)Nc4ccc(C(=O)N(C)C)cc4)cc3)nc3cc(-c4cnn(C)c4)cnc23)CCO1 (centres unmarked)"
readout_type = "IC50"
reported_measurement = "< 50 nM"

[[record]]
compound = "CN(C)CCn1cc(-c2ccc3c(N4CCOCC4)nc(-c4ccc(NC(=O)Nc5ccc(C(=O)N(C)C)cc5)cc4)nc3c2)cn1"
readout_type = "IC50"
reported_measurement = "< 50 nM"

[[record]]
compound = "Cc1ccc(-c2ccc3c(N4CCOCC4)nc(-c4ccc(NC(=O)Nc5ccc(C(=O)N(C)C)cc5)cc4F)nc3c2)o1"
readout_type = "IC50"
reported_measurement = "50 to 200 nM"


Query: Provide IC50, tested on mTOR kinase (Homo sapiens), for CN(C)C(=O)c1ccc(NC(=O)Nc2ccc(-c3nc(N4CCOCC4)c4ccc(-c5cncnc5)cc4n3)cc2F)c(F)c1 .
Reply: 201 to 10000 nM

Query: Provide IC50, tested on mTOR kinase (Homo sapiens), for CN(C)C(=O)c1ccc(NC(=O)Nc2ccc(-c3nc(N4CCOCC4)c4ccc(-c5cncnc5)cc4n3)cc2F)cn1 .
Reply: < 50 nM

Query: Provide IC50, tested on mTOR kinase (Homo sapiens), for CN(C)C1CCN(C(=O)c2ccc(NC(=O)Nc3ccc(-c4nc(N5CCOCC5)c5ncc(-c6cnn(C)c6)cc5n4)cc3)cc2)CC1 .
Reply: < 50 nM

Query: Provide IC50, tested on mTOR kinase (Homo sapiens), for CN(C)C(=O)c1ccc(NC(=O)Nc2ccc(-c3nc(N4CCOCC4)c4ccc(-c5cccnc5)cc4n3)cc2F)cc1 .
Reply: < 50 nM

Query: Provide IC50, tested on mTOR kinase (Homo sapiens), for CNC(=O)c1ccc(NC(=O)Nc2ccc(-c3nc(N4CCOCC4)c4ccc(-c5ccco5)cc4n3)cc2)cc1 .
Reply: 50 to 200 nM

Query: Provide IC50, tested on mTOR kinase (Homo sapiens), for COc1ncc(-c2ccc3c(N4CCOCC4)nc(-c4ccc(NC(=O)Nc5ccc(C(=O)N(C)C)cc5F)cc4)nc3c2)cn1 .
Reply: < 50 nM
